Where these numbers come from: ChEMBL document CHEMBL3769343

# Tested on: Influenza A virus (A/WSN/1933(H1N1))
# assay_method_text: Binding affinity to Influenza A virus A/WSN/33 (H1N1) HA1 protein assessed as decrease in protein affinity to sialic acid receptor at 10 uM by surface plasmon resonance assay
quantity: Activity (RU)
Give the number; RU is assumed, so skip it.

Take a look at these entries with their results.
molecule_smiles=CCCc1c(Cl)c(O)cc(OC)c1Oc1c(Cl)c(O)c(Cl)c2c1C(=O)O[C@@H]2CC numeric_value=44.8
molecule_smiles=CCOC(=O)c1c(CSc2ccccc2)n(C)c2cc(Br)c(O)c(CN(C)C)c12 numeric_value=48.7
molecule_smiles=CCCc1cc(O)cc(OC)c1Oc1c(Cl)c(O)c(Cl)c2c1C(=O)O[C@@H]2CC numeric_value=55.1

The recorded Activity with Influenza A virus (A/WSN/1933(H1N1)) for `COc1cc(/C=C/C(=O)CC(=O)/C=C/c2ccc(O)c(OC)c2)ccc1O` was 36.4
